The measurements presented in this section are drawn from patent US3948899A.

Provide the reported LD50 of each item.
- run_description: Acute toxicity (LD50; per os, mice)
- Assay type: in vivo
- condition_description: mouse, in vivo, po, dd-0train male mice
Counter-ions that a name gives are not always drawn.
Numbers only here, please. The scale is mg/kg.

# molecule CCOC(=O)N1CCN(C(C#N)c2ccc(OC)c(OC)c2)CC1 (centres unmarked) [Compound B-01] ; its LD50 = 2200

# molecule COc1ccc(CN2CCNCC2)c(OC)c1OC [Vastarel F, dihydrochloride] ; its LD50 = 960
